# Test system: OVCAR-5 ovarian
# Assay Method Text: NCI tumour cell line growth inhibition, 48 h; in the data active = GI50 below about 0.43 µM; inactive = the rest
Just give me one of these, please: y for active, n for inactive

| Compound | Label Value |
| --- | --- |
| CCS/C(Nc1ccccc1)=C(\C#N)C(=O)Nc1ccc(OC)cc1 | n |

Req: Status in this test for `C#Cc1ccc(NC(=O)c2ccc(/C=C/C(=O)c3nccn3C)cc2)cc1` ?
Resp: n

Req: Status in this test for `O=C(/C=C/c1cccc(Cl)c1)c1ccc(Cl)cc1Cl` ?
Resp: n

Req: Status in this test for `CC#CC(=O)N1CCC[C@H]1c1nc(-c2ccc(C(=O)Nc3ccccn3)cc2)c2c(N)nccn12` ?
Resp: n

Req: Status in this test for Cn1cnc([N+](=O)[O-])c1Sc1ncnc2c1ncn2C1OC(CO)C(O)C1O (configuration not stated) ?
Resp: n

Req: Status in this test for `FC(F)(F)c1ccc(-c2cnc(Br)nc2NC2CCCCCC2)cc1` ?
Resp: n

Req: Status in this test for COc1cc(C2C(C#N)=C(N)OC3=C2C(=O)c2ccccc2C3=O)cc(OC)c1OC (configuration not stated) ?
Resp: n

Req: Status in this test for `O=C(/C=C/c1ccco1)Nc1ncc(Cc2ccc(F)cc2)s1` ?
Resp: y

* * *

# System: MALME-3M melanoma
# Assay Method Text: NCI tumour cell line growth inhibition, 48 h
# maps each entry to its TGI

| Compound | TGI |
| --- | --- |
| COc1ccc(O)c2c1C(=O)CCCC2=O | > 100 µM |
| CC/C=C\CCC/C=C1/C(=O)C=C[C@@H]1C/C=C\CCCC(=O)O | 26.6 µM |
| COc1ccc(C(O)c2cc3c(N)c(C(=O)Nc4cccc(Br)c4)sc3nc2C)cc1 (stereo unspecified) | > 52.7 µM |
| O/N=C\c1cc(O)c(O)c(/C=N/O)c1 | > 100 µM |
| COc1ccc(/C=C\c2cc(OC)c(OC)c(OC)c2)c(NS(=O)(=O)c2ccc(C)cc2)c1O | > 100 µM |

Req: Requested field: TGI. Item: `Nc1cccc(OCc2nc(N)nc(N)c2-c2ccc(Cl)cc2)c1`
Resp: > 100 µM

Req: Requested field: TGI. Item: CC(C)(C)OC(=O)N1N=NC2C3CC(=O)C(O3)C21 (stereo unspecified)
Resp: > 100 µM

Req: Requested field: TGI. Item: `CCOC(=O)C(C)(C)Oc1ccc2c(-c3ccc(Cl)cc3)cc(=O)oc2c1`
Resp: > 100 µM

Req: Requested field: TGI. Item: COc1cc2c(cc1OC)C(Cl)C(c1cc(OC)c(OC)c(OC)c1)=C2Cl (stereo unspecified)
Resp: 30.6 µM

Req: Requested field: TGI. Item: `Cc1ccc(N2C(=O)/C(=C3\Sc4c(nc(C)[nH]c4=O)N3c3ccccc3)SC2=S)cc1`
Resp: > 100 µM

Req: Requested field: TGI. Item: `COc1cc2c(cc1OC)CCN=C2`
Resp: > 100 µM

* * *

# maps each entry to its TGI
# Tested on: T-47D breast
# Assay Method Text: NCI tumour cell line growth inhibition, 48 h

| Compound | Observable | Result Value |
| --- | --- | --- |
| Cc1nc2c(-c3ccccc3)[nH]c(C)c2c(=O)o1 | TGI | > 100 µM |

Req: Find the measured TGI: item CCNCC(O)c1ccc(N)c([N+](=O)[O-])c1 (configuration not stated) , target or system T-47D breast.
Resp: > 100 µM

Req: Find the measured TGI: item `COc1ccc(NC(=O)c2cc(OC)c(OC)c(OC)c2)cc1O` , target or system T-47D breast.
Resp: > 100 µM

Req: Find the measured TGI: item `N#Cc1nc(-c2ccccc2)oc1S(=O)(=O)N1CCOCC1` , target or system T-47D breast.
Resp: 3.84 µM

Req: Find the measured TGI: item Cn1cnc([N+](=O)[O-])c1Sc1ncnc2c1ncn2C1OC(CO)C(O)C1O (configuration not stated) , target or system T-47D breast.
Resp: > 100 µM

Req: Find the measured TGI: item `Clc1nc2c(-c3cccs3)ncnc2n1Cc1ccccc1` , target or system T-47D breast.
Resp: > 91.5 µM

Req: Find the measured TGI: item `O=C(NNS(=O)(=O)c1cc(C(F)(F)F)cc(C(F)(F)F)c1)c1cnn(-c2ccc(Cl)cc2)c1C(F)(F)F` , target or system T-47D breast.
Resp: 45 µM

Req: Find the measured TGI: item `Oc1ccccc1-n1c(-c2ccccc2)ccc1-c1ccccc1` , target or system T-47D breast.
Resp: 32.9 µM

Req: Find the measured TGI: item `C[C@@H]1CC[C@@]2(OC1)O[C@H]1C[C@H]3[C@@H]4CC=C5C[C@@H](O[C@@H]6O[C@H](CO)[C@@H](O[C@@H]7O[C@@H](CO)[C@H](O)[C@H]7O)[C@H](O)[C@H]6O[C@@H]6O[C@@H](C)[C@H](O)[C@@H](O)[C@H]6O)CC[C@]5(C)[C@H]4CC[C@]3(C)[C@H]1[C@@H]2C` , target or system T-47D breast.
Resp: 2.73 µM

Req: Find the measured TGI: item COC(=O)C1(Cc2cccc(Cl)c2)CCCCCCN1C(=O)c1ccccc1 (configuration not stated) , target or system T-47D breast.
Resp: 37.4 µM

Req: Find the measured TGI: item `Nc1ncc(Cc2nc3ccccc3s2)s1` , target or system T-47D breast.
Resp: > 100 µM

Req: Find the measured TGI: item `O=C1/C(=C/c2cccs2)CCC/C1=C\c1cccs1` , target or system T-47D breast.
Resp: > 72.8 µM
